subjectOfTest: UniProt P30561
Sequence (P30561 whole entry): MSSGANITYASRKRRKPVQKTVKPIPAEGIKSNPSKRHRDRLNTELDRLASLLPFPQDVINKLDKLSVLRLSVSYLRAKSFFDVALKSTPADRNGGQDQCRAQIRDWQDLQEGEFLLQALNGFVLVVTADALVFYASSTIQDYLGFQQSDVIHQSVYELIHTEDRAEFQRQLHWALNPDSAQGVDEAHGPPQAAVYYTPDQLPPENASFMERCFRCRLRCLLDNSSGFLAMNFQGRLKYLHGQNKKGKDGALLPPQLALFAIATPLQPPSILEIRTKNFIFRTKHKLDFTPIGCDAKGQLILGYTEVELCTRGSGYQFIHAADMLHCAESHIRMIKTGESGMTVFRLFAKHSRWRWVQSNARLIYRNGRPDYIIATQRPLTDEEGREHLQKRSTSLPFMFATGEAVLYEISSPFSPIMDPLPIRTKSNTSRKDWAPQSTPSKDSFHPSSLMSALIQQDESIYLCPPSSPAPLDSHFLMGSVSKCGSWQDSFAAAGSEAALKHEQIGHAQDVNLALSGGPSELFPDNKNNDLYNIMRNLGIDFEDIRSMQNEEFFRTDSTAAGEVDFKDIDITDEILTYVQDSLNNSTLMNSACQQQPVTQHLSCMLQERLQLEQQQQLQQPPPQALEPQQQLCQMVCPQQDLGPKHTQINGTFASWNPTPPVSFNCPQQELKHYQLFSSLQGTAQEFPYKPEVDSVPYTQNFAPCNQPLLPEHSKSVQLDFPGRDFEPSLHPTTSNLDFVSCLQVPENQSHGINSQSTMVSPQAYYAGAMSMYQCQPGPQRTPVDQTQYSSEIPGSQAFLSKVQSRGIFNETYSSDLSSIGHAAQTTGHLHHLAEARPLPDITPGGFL
procedureText: Agonist activity at AhR in mouse Hepa2Dluc cells
readoutName: EC50

Short answer please: EC50, UniProt P30561, entry `COC(=O)c1csc(C(=O)c2c[nH]c3ccccc23)n1` 10 nM

* * *

procedureText: Stability in cell-free culture media assessed as parent compound remaining at 1 uM incubated for 12 hrs in presence of serum by LC/MS analysis
Format: physicochemical
conditionContext: cell-free culture media with serum, read-out: Stability
readoutName: remaining at 12 h, 1 µM (%)
Answers are plain numbers, in %.

Given the compound `CNC(=O)c1csc(C(=O)c2c[nH]c3ccccc23)n1` , what is its reported remaining at 12 h, 1 µM? 5

* * *

subjectOfTest: UniProt P35869
procedureText: Agonist activity at AhR (unknown origin) transfected in human AZ-AHR reporter cells derived from human HepG2 cells assessed as relative efficacy incubated for 4 hrs by luciferase reporter gene assay relative to control
Format: cell-based
conditionContext: read-out: Efficacy
Please provide measured Emax at 4 h for the entries that follow.
Answer shape: numeric part, then the unit.

Sample answers from the record:
- smilesRecord: "COc1cc(Cn2cc(C(=O)c3nccs3)c3ccccc32)cc(OC)c1"
  readoutName: "Emax at 4 h"
  result: "57%"
- smilesRecord: "COc1ccc(Cn2cc(C(=O)c3nccs3)c3ccccc32)cc1"
  readoutName: "Emax at 4 h"
  result: "133%"
- smilesRecord: "O=C(c1nccs1)c1cn(C(=O)c2ccccc2)c2ccccc12"
  readoutName: "Emax at 4 h"
  result: "81.4%"
- smilesRecord: "COC(=O)c1csc(C(=O)c2c[nH]c3ccccc23)n1"
  readoutName: "Emax at 4 h"
  result: "131%"
- smilesRecord: "C=CCn1cc(C(=O)c2nccs2)c2ccccc21"
  readoutName: "Emax at 4 h"
  result: "63.9%"
- smilesRecord: "CC(=O)n1cc(C(=O)c2nccs2)c2ccccc21"
  readoutName: "Emax at 4 h"
  result: "106%"

// next entry
Given the molecule `Cn1cc(C(=O)c2nccs2)c2ccccc21` , what is its reported Emax at 4 h? 62.9%

* * *

subjectOfTest: Nuclear receptor subfamily 1 group I member 2 (Homo sapiens, UniProt O75469)
Sequence (O75469 whole entry): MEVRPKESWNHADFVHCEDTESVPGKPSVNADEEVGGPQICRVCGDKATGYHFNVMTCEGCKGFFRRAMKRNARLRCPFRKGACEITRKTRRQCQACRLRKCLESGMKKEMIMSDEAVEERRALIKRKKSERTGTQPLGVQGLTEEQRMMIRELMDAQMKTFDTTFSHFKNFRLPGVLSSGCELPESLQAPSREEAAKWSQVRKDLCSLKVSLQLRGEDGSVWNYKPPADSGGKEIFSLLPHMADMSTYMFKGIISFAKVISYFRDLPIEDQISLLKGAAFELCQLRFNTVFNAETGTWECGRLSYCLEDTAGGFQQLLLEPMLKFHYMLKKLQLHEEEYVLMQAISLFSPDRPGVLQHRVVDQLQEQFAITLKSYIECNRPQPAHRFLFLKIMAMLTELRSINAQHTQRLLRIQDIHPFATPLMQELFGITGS
procedureText: Agonist activity at human PXR transfected in human LS180 cells cotransfected with luciferase reporter plasmid p2A4-Luc assessed as transcriptional activity incubated for 24 hrs by luciferase reporter assay
readoutName: EC50 (µM)
One number for each entry, in µM.

Given the compound `CNC(=O)c1csc(C(=O)c2c[nH]c3ccccc23)n1` , what is its reported EC50? 12

* * *

subjectOfTest: Aryl hydrocarbon receptor (Homo sapiens)
Sequence (P35869 whole entry): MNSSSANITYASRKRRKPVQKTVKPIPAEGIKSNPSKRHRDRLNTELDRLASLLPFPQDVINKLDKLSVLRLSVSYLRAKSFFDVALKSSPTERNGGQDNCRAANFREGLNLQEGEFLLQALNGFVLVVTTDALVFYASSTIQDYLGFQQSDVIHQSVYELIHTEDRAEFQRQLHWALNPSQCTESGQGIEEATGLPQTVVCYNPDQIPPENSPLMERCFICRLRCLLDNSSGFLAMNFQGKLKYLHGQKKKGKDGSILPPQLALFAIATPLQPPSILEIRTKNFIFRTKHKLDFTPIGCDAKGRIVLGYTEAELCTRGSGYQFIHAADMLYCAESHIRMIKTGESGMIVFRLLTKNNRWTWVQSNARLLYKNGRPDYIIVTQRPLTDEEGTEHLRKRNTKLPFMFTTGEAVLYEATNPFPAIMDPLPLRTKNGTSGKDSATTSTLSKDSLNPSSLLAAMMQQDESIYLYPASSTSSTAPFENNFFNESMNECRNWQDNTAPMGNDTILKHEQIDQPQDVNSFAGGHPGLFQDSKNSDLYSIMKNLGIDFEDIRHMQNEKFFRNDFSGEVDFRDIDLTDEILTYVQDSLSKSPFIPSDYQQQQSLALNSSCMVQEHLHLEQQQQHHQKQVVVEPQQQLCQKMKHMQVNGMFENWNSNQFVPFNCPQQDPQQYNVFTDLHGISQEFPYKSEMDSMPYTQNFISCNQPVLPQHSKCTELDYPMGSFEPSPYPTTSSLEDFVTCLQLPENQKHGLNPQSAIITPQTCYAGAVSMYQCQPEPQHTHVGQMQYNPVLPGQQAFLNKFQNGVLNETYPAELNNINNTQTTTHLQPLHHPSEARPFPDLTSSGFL
procedureText: Agonist activity at AhR (unknown origin) transfected in human AZ-AHR reporter cells derived from human HepG2 cells incubated for 4 hrs by luciferase reporter gene assay
readoutName: EC50 (nM)
Numbers only, in nM.

Given the compound `COc1ccc(Cn2cc(C(=O)c3nccs3)c3ccccc32)cc1` , what is its reported EC50? 110

* * *

procedureText: Metabolic stability in mouse plasma assessed as half life by LC/MS analysis
Type: ADME, cell-free
readoutName: half-life (min)
Give bare numbers, in min.

Given the compound `COC(=O)c1csc(C(=O)c2c[nH]c3ccccc23)n1` , what is its reported half-life? 44
